System: PFOR (pyruvate ferredoxin oxidoreductase)
Experiment: Direct PFOR enzyme assay
Format: biochemical
Settings: Furan analogues table
Protocol: Representative compounds of the invention were tested in a series of assays against a series of organisms as described above. […] The organisms tested include, C. difficile, H. pylori, C. jejuni, MRSA, S. epidermidis, and E. coli. S. epidermidis and E. coli were tested in the plank and biofilm assay. A disk diffusion assay was also used for C. difficile. Direct PFOR enzyme assays were also performed. […]
Outcome label depends on PFOR inhibition relative to nitazoxanide (=100) relative to 80%: at/above gives Y, below gives N.

Check out these entries, answers already filled in.
CC(=O)Oc1ccccc1C(=O)Nc1ncc([N+](=O)[O-])s1 [Nitazoxanide, reference compound] = Y
O=C(Nc1ncc([N+](=O)[O-])s1)c1cc(Br)c(Br)o1 = N
O=C(Nc1ncc([N+](=O)[O-])s1)c1cc2ccccc2o1 = N

Query compound follows.
hey, is PFOR inhibition relative to nitazoxanide (=100) for this one >= 80%? `O=C(Nc1ncc([N+](=O)[O-])s1)c1ccoc1`
Y
